- EXPERIMENTAL_TARGET: T1, human TREM2 (human, UniProt Q9NZC2 19-230)
- T1 construct: on THP-1 WT cells and M2a-like macrophages (endogenous) and on CHO or HEK293T cells overexpressing human TREM2 with DAP12; also called hTREM2
- T1 sequence: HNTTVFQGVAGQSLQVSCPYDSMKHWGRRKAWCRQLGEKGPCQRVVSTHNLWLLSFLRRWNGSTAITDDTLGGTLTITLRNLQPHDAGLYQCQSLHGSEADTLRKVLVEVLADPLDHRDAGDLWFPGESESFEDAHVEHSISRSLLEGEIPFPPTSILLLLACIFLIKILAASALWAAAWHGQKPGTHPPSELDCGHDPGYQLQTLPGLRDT
- METHOD_NOTES: flow cytometry, THP-1 WT vs THP-1 TREM2 KO cells, 10 ug/ml
MEASURE_NAME: MFI Fold change (THP-1 WT over THP-1 TREM2 KO)

Known results for binders:
EOS006173 (antibody, V domains shown, also called EOS061730) VH: EVQLVESGGGLVQPGRSLRLSCTASGFTFGDYAMSWFRQAPGKGLEWVGFIGSKAYGGTTEYTASVKGRFTISRDGSKSIAYLQMNSLKTEDTAVYYCARGKRRDYGYWHPAFDVWGQGTMVTVSS VL: DIQMTQSPSSLSASVGDRVTITCQASQDITNYLNWYQQKPGKAPKLLIYDASNLETGVPSRFSGSGSGTDFTFTISSLQPEDIATYYCQEYDQYLTFGGGTKVEIK; 3.3 fold
EOS006171 (antibody, V domains shown) VH: QVQLVESGGGLVKPGGSLRLSCAASGFTFSDYYMSWIRQAPGKGLEWVSYISSSGSTIYYADSVKGRFTISRDNAKNSLYLQMNSLRAEDTAVYYCARLGGYYSLGPMDVWGQGTTVTVSS VL: EIVLTQSPATLSLSPGERATLSCRASQSVSSYLAWYQQKPGQAPRLLIYDASNRATGIPARFSGSGSGTDFTLTISSLEPEDFAVYYCQQDSAFPFTFGGGTKVEIK; 4.3 fold
EOS006177 (antibody, V domains shown) VH: QVQLQESGPGLVKPSGTLSLTCAVSGGSISDSAWWSWVRQPPGKGLEWIGEIYHDADTNYNPSLKSRVTISVDKSKNQFSLKLSSVTAADTAVYYCARDTKYWGGMDVWGQGTTVTVSS VL: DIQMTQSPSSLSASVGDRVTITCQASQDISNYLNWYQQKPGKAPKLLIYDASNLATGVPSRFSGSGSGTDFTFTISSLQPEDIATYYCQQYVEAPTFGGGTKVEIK; 6.8 fold

MFI Fold change (THP-1 WT over THP-1 TREM2 KO) in this record for EOS006172 (antibody, V domains shown) VH: QVQLVQSGAEVKKPGSSVKVSCKASGGTFSSYAISWVRQAPGQGLEWMGGIIPISGTANYAQKFQGRVTITADESTSTAYMELSSLRSEDTAVYYCARTQEYTLFDIWGQGTMVTVSS VL: EIVLTQSPATLSLSPGERATLSCRASQSVSSYLAWFQQKPGQAPRLLIYDASNRATGIPARFSGSGSGTDFTLTISSLEPEDFAVYYCQQDFHWPITFGGGTKVEIK : 8.9 fold

MFI Fold change (THP-1 WT over THP-1 TREM2 KO) in this record for EOS006163 (antibody, V domains shown) VH: QVQLVQSGAEVKKPGSSVKVSCKASGGTFAQYAISWVRQAPGQGLEWMGVIIPDSGTANYAQKFQGRVTITADESTSTAYMELSSLRSEDTAVYYCARTQENTIFDIWGQGTMVTVSS VL: EIVLTQSPATLSLSPGERATLSCRASQSVSSYLAWFQQKPGQAPRLLIYDASNRATGIPARFSGSGSGTDFTLTISSLEPEDFAVYYCQQDYEWPITFGGGTKVEIK : 5.1 fold

MFI Fold change (THP-1 WT over THP-1 TREM2 KO) in this record for EOS006170 (antibody, V domains shown) VH: QVQLQESGPGLVKPSGTLSLTCAVSGGSISSSNWWSWVRQPPGKGLEWIGEIYHSGSTNYNPSLKSRVTISVDKSKNQFSLKLSSVTAADTAVYYCARDTKYQAGMDVWGQGTTVTVSS VL: DIQMTQSPSSLSASVGDRVTITCQASQDISNYLNWYQQKPGKAPKLLIYDASNLATGVPSRFSGSGSGTDFTFTISSLQPEDIATYYCQQYVVFPTFGGGTKVEIK : 3.2 fold
